tested on: Acinetobacter baumannii; experiment: Antibacterial activity against Acinetobacter baumannii clinical isolate assessed as reduction in bacterial growth by CLSI based broth microdilution method; format: functional
measured-property: MIC (µg/mL)

[[record]]
smiles = "CC1(C)[C@H](NC(=O)/C(=N\\O[C@@H](COc2ccc(NC(=O)N[C@H]3CCCNC3)cc2)C(=O)O)c2csc(N)n2)C(=O)N1OS(=O)(=O)O"
units_text = "µg/mL"
meas_value = 64


I. CC1(C)[C@H](NC(=O)/C(=N\O[C@@H](COc2ccc(NC(=O)NC3CCNCC3)cc2)C(=O)O)c2csc(N)n2)C(=O)N1OS(=O)(=O)O
II. CC1(C)[C@H](NC(=O)/C(=N\O[C@@H](COc2ccc(NC(=O)N[C@@H]3CCCNC3)cc2)C(=O)O)c2csc(N)n2)C(=O)N1OS(=O)(=O)O
Returns: the label, I or II , whose recorded MIC is the lower number. Indicate which entry you chose by stating its label.
II

----------
system: Pseudomonas aeruginosa; assay: Antibacterial activity against Pseudomonas aeruginosa 9027 assessed as reduction in bacterial growth by CLSI based broth microdilution method; assay type: functional
measured-property: MIC (µg/mL)

[[record]]
smiles = "CC1(C)[C@H](NC(=O)/C(=N/O[C@@H](COc2ccc(NC(=O)N[C@@H]3CCCNC3)cc2)C(=O)O)c2csc(N)n2)C(=O)N1OS(=O)(=O)O"
meas_value = 32

[[record]]
smiles = "CC1(C)[C@H](NC(=O)/C(=N\\O[C@@H](COc2ccc(NC(=O)N[C@@H]3CCCNC3)cc2)C(=O)O)c2csc(N)n2)C(=O)N1OS(=O)(=O)O"
meas_value = 2

[[record]]
smiles = "CC1(C)[C@H](NC(=O)/C(=N\\O[C@@H](COc2ccc(NC(=O)N[C@H]3CCCNC3)cc2)C(=O)O)c2csc(N)n2)C(=O)N1OS(=O)(=O)O"
meas_value = 2


1. CC1(C)[C@H](NC(=O)/C(=N\O[C@@H](COc2ccc(NC(=O)NC3CCNCC3)cc2)C(=O)O)c2csc(N)n2)C(=O)N1OS(=O)(=O)O
2. CC1(C)[C@H](NC(=O)/C(=N/O[C@@H](COc2ccc(NC(=O)N[C@H]3CCCNC3)cc2)C(=O)O)c2csc(N)n2)C(=O)N1OS(=O)(=O)O
3. CC1(C)[C@H](NC(=O)/C(=N/O[C@@H](COc2ccc(NC(=O)NC3CCNCC3)cc2)C(=O)O)c2csc(N)n2)C(=O)N1OS(=O)(=O)O
List these items ordered by MIC, big to small. Submit the labels in the order that the ranking request calls for.
2, 3, 1

----------
tested on: Enterobacter cloacae; assay: Antibacterial activity against Enterobacter cloacae 700323 assessed as reduction in bacterial growth by CLSI based broth microdilution method; type: functional
measured-property: MIC (µg/mL)

[[record]]
smiles = "CC1(C)[C@H](NC(=O)/C(=N\\O[C@@H](COc2ccc(NC(=O)NC3CCNCC3)cc2)C(=O)O)c2csc(N)n2)C(=O)N1OS(=O)(=O)O"
meas_value = 32


I. CC1(C)[C@H](NC(=O)/C(=N\O[C@@H](COc2ccc(NC(=O)N[C@@H]3CCCNC3)cc2)C(=O)O)c2csc(N)n2)C(=O)N1OS(=O)(=O)O
II. CC1(C)[C@H](NC(=O)/C(=N\O[C@@H](COc2ccc(NC(=O)N[C@H]3CCCNC3)cc2)C(=O)O)c2csc(N)n2)C(=O)N1OS(=O)(=O)O
Look at I and II . Which one has the lower recorded MIC number? Returns: label corresponding to the selected item.
I
(I: 16 µg/mL, II: 32 µg/mL)

----------
system: Enterobacter cloacae; experiment: Antibacterial activity against Enterobacter cloacae clinical isolate assessed as reduction in bacterial growth by CLSI based broth microdilution method; format: functional
measured-property: MIC (µg/mL)

1. CC1(C)[C@H](NC(=O)/C(=N\O[C@@H](COc2ccc(NC(=O)N[C@@H]3CCCNC3)cc2)C(=O)O)c2csc(N)n2)C(=O)N1OS(=O)(=O)O
2. CC1(C)[C@H](NC(=O)/C(=N/O[C@@H](COc2ccc(NC(=O)N[C@@H]3CCCNC3)cc2)C(=O)O)c2csc(N)n2)C(=O)N1OS(=O)(=O)O
3. CC1(C)[C@H](NC(=O)/C(=N\O[C@@H](COc2ccc(NC(=O)NC3CCNCC3)cc2)C(=O)O)c2csc(N)n2)C(=O)N1OS(=O)(=O)O
// rank above by MIC: first = highest number Order the labels as requested and give them as your answer.
2, 3, 1

----------
tested on: Enterobacter cloacae; experiment: Antibacterial activity against Enterobacter cloacae 700323 assessed as reduction in bacterial growth by CLSI based broth microdilution method; assay type: functional
measured-property: MIC (µg/mL)

1. CC1(C)[C@H](NC(=O)/C(=N/O[C@@H](COc2ccc(NC(=O)N[C@@H]3CCCNC3)cc2)C(=O)O)c2csc(N)n2)C(=O)N1OS(=O)(=O)O
2. CC1(C)[C@H](NC(=O)/C(=N/O[C@@H](COc2ccc(NC(=O)N[C@H]3CCCNC3)cc2)C(=O)O)c2csc(N)n2)C(=O)N1OS(=O)(=O)O
Between these two entries, 1 and 2 , state which has the higher MIC. Your choice should be expressed through its label.
1

----------
system: Enterobacter cloacae; assay: Antibacterial activity against Enterobacter cloacae clinical isolate assessed as reduction in bacterial growth by CLSI based broth microdilution method; type: functional
measured-property: MIC (µg/mL)

a. CC1(C)[C@H](NC(=O)/C(=N/O[C@@H](COc2ccc(NC(=O)NC3CCNCC3)cc2)C(=O)O)c2csc(N)n2)C(=O)N1OS(=O)(=O)O
b. CC1(C)[C@H](NC(=O)/C(=N/O[C@@H](COc2ccc(NC(=O)N[C@H]3CCCNC3)cc2)C(=O)O)c2csc(N)n2)C(=O)N1OS(=O)(=O)O
c. CC1(C)[C@H](NC(=O)/C(=N\O[C@@H](COc2ccc(NC(=O)N[C@H]3CCCNC3)cc2)C(=O)O)c2csc(N)n2)C(=O)N1OS(=O)(=O)O
Put the listed items above in order, lowest MIC first. List each label, following the requested order.
c, a, b

----------
Here, each record is paired with measured MIC data.
tested on: Acinetobacter baumannii; test: Antibacterial activity against Acinetobacter baumannii clinical isolate assessed as reduction in bacterial growth by CLSI based broth microdilution method; assay type: functional

Here's what some known entries look like.
[[record]]
smiles = "CC1(C)[C@H](NC(=O)/C(=N/O[C@@H](COc2ccc(NC(=O)NC3CCNCC3)cc2)C(=O)O)c2csc(N)n2)C(=O)N1OS(=O)(=O)O"
tgt = "Acinetobacter baumannii"
measured_property = "MIC"
meas_value = "> 64 µg/mL"

[[record]]
smiles = "CC1(C)[C@H](NC(=O)/C(=N/O[C@@H](COc2ccc(NC(=O)N[C@@H]3CCCNC3)cc2)C(=O)O)c2csc(N)n2)C(=O)N1OS(=O)(=O)O"
tgt = "Acinetobacter baumannii"
measured_property = "MIC"
meas_value = "> 64 µg/mL"


Let us examine a further case.
Measured on Acinetobacter baumannii, CC1(C)[C@H](NC(=O)/C(=N/O[C@@H](COc2ccc(NC(=O)N[C@H]3CCCNC3)cc2)C(=O)O)c2csc(N)n2)C(=O)N1OS(=O)(=O)O has a documented MIC of > 64 µg/mL
